- Test System: PBPB1 (PBP3) (Listeria monocytogenes)
- Sequence (Q8Y763 entry or part of it): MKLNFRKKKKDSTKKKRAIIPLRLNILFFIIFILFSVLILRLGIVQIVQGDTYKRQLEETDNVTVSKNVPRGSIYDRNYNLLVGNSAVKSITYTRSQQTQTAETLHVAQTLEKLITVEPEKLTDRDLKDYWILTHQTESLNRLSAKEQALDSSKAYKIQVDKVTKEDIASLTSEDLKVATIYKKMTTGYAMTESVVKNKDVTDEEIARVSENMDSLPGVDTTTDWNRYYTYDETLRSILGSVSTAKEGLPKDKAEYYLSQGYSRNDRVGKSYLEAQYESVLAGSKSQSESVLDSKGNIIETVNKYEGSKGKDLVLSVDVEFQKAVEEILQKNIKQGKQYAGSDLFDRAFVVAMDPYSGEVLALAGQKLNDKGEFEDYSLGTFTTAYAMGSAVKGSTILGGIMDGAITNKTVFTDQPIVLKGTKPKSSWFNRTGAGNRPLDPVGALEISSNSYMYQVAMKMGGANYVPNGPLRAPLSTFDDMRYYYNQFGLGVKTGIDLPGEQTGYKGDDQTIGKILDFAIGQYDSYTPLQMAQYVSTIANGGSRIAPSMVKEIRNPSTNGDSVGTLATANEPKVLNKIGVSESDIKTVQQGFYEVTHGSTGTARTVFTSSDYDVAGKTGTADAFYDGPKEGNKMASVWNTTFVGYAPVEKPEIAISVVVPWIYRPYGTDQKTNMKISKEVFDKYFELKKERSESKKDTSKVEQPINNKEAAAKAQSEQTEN
- Test Name: Fluorescent antibiotic binding assay, whole cells
- Conditions Used: read-out: Boc-FL Kd50, 30 min at 37°C, estimated from band fluorescence as a function of Boc-FL concentration
Measured Property: Kd (nM)
Record the value in nM, omitting the unit from your answer.

Request - read-out Kd | tested on PBPB1 (PBP3) (Listeria monocytogenes) | compound Cc1cc(C)n2c1C=C1C=CC(CCC(=O)Nc3ccc(OCC(=O)N[C@@H]4C(=O)N5[C@@H]4SC(C)(C)[C@@H]5C(=O)O)cc3)=[N+]1[B-]2(F)F [Boc-FL, Bocillin-FL] 250

----------
- Test System: PBPD1 (PBP5) (Listeria monocytogenes, UniProt Q8Y3S7)
- Sequence (Q8Y3S7 entry or part of it): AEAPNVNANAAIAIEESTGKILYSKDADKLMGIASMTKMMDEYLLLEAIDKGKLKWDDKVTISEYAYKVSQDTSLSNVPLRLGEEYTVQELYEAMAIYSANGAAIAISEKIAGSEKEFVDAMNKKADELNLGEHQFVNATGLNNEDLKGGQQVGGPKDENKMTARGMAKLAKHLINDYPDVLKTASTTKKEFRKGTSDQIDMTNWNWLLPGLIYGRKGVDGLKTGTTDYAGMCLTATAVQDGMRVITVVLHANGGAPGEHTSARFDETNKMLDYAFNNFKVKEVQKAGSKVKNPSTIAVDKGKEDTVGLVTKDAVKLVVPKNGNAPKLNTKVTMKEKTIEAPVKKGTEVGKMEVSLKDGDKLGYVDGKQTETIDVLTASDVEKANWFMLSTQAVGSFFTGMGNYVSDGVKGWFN
- Test Name: Fluorescent antibiotic binding assay, whole cells
- Conditions Used: read-out: Boc-FL Kd50, 30 min at 37°C, estimated from band fluorescence as a function of Boc-FL concentration
Measured Property: pKd
Convention used: pKd is expressed as -log10 of the molar concentration.

Request - read-out pKd | tested on PBPD1 (PBP5) (Listeria monocytogenes, UniProt Q8Y3S7) | molecule `Cc1cc(C)n2c1C=C1C=CC(CCC(=O)Nc3ccc(OCC(=O)N[C@@H]4C(=O)N5[C@@H]4SC(C)(C)[C@@H]5C(=O)O)cc3)=[N+]1[B-]2(F)F` 5.30

----------
- Test System: PBPA1 (PBP1) (Listeria monocytogenes)
- Sequence (Q8Y610 entry or part of it): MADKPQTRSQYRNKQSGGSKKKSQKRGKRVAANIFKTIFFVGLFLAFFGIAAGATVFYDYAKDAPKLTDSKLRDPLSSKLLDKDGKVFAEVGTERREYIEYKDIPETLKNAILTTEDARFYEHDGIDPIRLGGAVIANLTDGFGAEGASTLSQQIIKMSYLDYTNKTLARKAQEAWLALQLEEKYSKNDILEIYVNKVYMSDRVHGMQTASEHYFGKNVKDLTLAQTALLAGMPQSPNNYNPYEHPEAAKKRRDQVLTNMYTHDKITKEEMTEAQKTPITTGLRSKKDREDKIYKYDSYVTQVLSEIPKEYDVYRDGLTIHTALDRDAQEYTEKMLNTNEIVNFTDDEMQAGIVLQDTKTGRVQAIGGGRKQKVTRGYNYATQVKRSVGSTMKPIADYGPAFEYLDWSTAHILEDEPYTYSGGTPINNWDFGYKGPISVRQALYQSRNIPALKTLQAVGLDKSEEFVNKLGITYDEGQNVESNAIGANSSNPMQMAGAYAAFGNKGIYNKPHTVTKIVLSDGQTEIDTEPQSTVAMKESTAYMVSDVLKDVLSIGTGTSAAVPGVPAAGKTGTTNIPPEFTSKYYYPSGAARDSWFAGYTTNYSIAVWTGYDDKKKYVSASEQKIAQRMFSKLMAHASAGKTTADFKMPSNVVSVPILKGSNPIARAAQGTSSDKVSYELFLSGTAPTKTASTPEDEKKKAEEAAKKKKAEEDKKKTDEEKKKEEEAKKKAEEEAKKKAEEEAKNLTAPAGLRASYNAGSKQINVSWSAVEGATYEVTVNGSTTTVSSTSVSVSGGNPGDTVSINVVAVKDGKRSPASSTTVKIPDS
- Test Name: Fluorescent antibiotic binding assay, whole cells
- Conditions Used: read-out: Boc-FL Kd50, 30 min at 37°C, estimated from band fluorescence as a function of Boc-FL concentration
Measured Property: Kd

Please give the measured Kd for this compound: `Cc1cc(C)n2c1C=C1C=CC(CCC(=O)Nc3ccc(OCC(=O)N[C@@H]4C(=O)N5[C@@H]4SC(C)(C)[C@@H]5C(=O)O)cc3)=[N+]1[B-]2(F)F` > 10 µM

----------
- Test System: PBPA2 (PBP4) (Listeria monocytogenes)
- Sequence (Q8Y547 entry or part of it): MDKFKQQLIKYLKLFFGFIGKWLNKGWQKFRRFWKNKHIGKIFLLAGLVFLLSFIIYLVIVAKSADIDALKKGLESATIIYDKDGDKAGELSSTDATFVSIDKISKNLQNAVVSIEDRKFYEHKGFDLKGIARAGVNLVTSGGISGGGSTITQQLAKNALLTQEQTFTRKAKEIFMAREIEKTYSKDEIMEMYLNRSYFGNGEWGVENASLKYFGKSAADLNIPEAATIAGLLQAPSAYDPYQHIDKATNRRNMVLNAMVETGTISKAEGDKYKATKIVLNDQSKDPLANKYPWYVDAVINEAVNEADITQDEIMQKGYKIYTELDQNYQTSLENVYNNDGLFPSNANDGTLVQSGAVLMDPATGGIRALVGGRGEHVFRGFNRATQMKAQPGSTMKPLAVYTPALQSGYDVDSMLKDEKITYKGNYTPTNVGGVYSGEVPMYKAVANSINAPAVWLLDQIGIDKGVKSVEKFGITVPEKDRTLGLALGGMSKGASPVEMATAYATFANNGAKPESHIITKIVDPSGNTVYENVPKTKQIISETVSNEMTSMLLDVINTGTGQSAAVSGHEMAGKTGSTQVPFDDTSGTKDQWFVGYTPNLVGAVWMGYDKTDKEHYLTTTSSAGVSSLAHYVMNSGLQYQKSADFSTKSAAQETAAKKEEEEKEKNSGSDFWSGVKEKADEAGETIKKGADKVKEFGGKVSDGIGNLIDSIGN
- Test Name: Fluorescent antibiotic binding assay, whole cells
- Conditions Used: read-out: Boc-FL Kd50, 30 min at 37°C, estimated from band fluorescence as a function of Boc-FL concentration
Measured Property: Kd (nM)
Record the value in nM, omitting the unit from your answer.

Please give the measured Kd for this compound: `Cc1cc(C)n2c1C=C1C=CC(CCC(=O)Nc3ccc(OCC(=O)N[C@@H]4C(=O)N5[C@@H]4SC(C)(C)[C@@H]5C(=O)O)cc3)=[N+]1[B-]2(F)F` 250

----------
- Test System: purified recombinant Lmo2812 (PBPD2) (Listeria monocytogenes, UniProt Q8Y3M3)
- Sequence (Q8Y3M3 entry or part of it): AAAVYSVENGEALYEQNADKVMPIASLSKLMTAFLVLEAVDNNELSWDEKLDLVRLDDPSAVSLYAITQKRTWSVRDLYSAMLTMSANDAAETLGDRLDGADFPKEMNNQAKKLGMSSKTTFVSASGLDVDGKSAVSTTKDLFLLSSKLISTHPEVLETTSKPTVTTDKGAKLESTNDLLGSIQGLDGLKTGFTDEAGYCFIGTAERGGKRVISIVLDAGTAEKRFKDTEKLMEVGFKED
- Test Name: Fluorescent antibiotic binding assay, purified recombinant protein
Measured Property: pKd
Convention used: pKd is expressed as -log10 of the molar concentration.

Please give the measured pKd for this compound: `Cc1cc(C)n2c1C=C1C=CC(CCC(=O)Nc3ccc(OCC(=O)N[C@@H]4C(=O)N5[C@@H]4SC(C)(C)[C@@H]5C(=O)O)cc3)=[N+]1[B-]2(F)F` 5.60
